- protocol.details: in vivo
- Parameters: species or system beagle dogs
- condition.context: beagle, dog

{"smiles.text": "C/C=C1\\NC(=O)[C@H]2CSSCC/C=C/[C@H](CC(=O)N[C@H](C(C)C)C(=O)N2)OC(=O)[C@H](C(C)C)NC1=O", "bioavailability": "≤ 28%"}
